Target: T1, PSMA Fab (006 PSMA Fab)
T1 construct: also called Anti-PSMA Fab; anti-PSMA Fab
Assay: clonal phage ELISA; biotinylated PSMA Fab on neutravidin plate, wells pre-incubated with PSMA antigen as competitor; anti-M13 HRP detection;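 also: crude clonal phage supernatants added to antigen-treated wells without a wash, incubated briefly, then bound phage read out via horse radish–conjugated anti-M13 antibody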
Label true when Phage binding ELISA signal, Anti-PSMA Fab in presence of PSMA antigen is at or above 0.08; otherwise label false.

Illustrative cases are given below, each with its answer.
- Binder: "VPKWCTPAWMCTGL (Row prints V P K W - T - A - - - T - L) [Phage-2516]"
  Label value: "false"
- Binder: "IVRWCTPEWMCVGF (Row prints - V R W - T - E - - - V - -) [Phage-2523]"
  Label value: "false"
- Binder: "LGKMCIPLWMCDGL (Row prints L G K M - I - L - - - D - L) [Phage-2512]"
  Label value: "false"

// query Check if Phage binding ELISA signal, Anti-PSMA Fab in presence of PSMA antigen >= 0.08 (inclusive). Item: EIKWCTPAWMCAIN (Row prints E I K W - T - A - - - - I N) [Phage-2514]
// result true

// query Answer whether Phage binding ELISA signal, Anti-PSMA Fab in presence of PSMA antigen of IDPRCIPEWMCIGY (Row prints - D P R - I - E - - - I - Y) [Phage-2518] is greater than or equal to 0.08.
// result false

// query Is the recorded value of Phage binding ELISA signal, Anti-PSMA Fab in presence of PSMA antigen equal to or greater than 0.08 for this binder? VITWCTPPWMCSGW (Row prints V I T W - T - P - - - S - W) [Phage-2525]
// result true

// query Answer whether Phage binding ELISA signal, Anti-PSMA Fab in presence of PSMA antigen of PIPLCIPLWMCEER (Row prints P I P - - I - L - - - E E R) [Phage-2520] is greater than or equal to 0.08.
// result true
